# MEASURED ON: FGFR3 (UniProt P22607)
# Sequence (P22607 whole entry, looked up): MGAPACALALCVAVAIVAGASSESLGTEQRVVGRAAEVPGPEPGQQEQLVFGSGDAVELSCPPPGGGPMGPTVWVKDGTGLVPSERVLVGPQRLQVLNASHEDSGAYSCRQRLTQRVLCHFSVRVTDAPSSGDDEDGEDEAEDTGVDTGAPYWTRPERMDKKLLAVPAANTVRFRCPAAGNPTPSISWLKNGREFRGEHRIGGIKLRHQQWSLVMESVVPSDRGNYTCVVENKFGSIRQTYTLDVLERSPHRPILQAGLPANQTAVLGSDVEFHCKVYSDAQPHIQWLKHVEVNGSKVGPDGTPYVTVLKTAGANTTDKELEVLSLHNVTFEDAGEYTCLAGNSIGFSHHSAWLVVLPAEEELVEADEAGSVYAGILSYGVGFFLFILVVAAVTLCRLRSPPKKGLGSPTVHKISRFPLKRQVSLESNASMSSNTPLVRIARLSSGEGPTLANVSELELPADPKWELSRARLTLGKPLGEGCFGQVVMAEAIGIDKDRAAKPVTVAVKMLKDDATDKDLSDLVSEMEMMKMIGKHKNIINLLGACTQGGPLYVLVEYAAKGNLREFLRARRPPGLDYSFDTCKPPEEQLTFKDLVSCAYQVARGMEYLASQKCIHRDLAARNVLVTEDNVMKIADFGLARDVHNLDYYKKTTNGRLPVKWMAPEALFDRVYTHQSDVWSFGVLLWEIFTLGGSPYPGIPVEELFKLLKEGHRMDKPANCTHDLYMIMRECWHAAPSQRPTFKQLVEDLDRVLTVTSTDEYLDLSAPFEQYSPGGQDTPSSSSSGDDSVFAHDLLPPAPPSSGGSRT
# EXPERIMENT NOTES: phosphorylation enrichment, bacterial display (enrichment ratio); higher = better substrate or ligand; peptides without Tyr show the background
Given measured phosphorylation enrichment, output True if it is greater than or equal to 0.7 and False if not.

Example results:
IPTPAYQSSPA [PDCD6IP_Y727]	False
TMKSRYMELFD [BBS2_Y644_YF]	False

Reported phosphorylation enrichment reaches at least 0.7 for RSSKMYPKTRS [LPL_Y329_L330P] ?
False

Reported phosphorylation enrichment reaches at least 0.7 for SHNKYYMLVAR [MFSD8_Y134] ?
True

Reported phosphorylation enrichment reaches at least 0.7 for QFNMQYSSSAA [ERBB2IP_Y981_I979M_YF] ?
False

Reported phosphorylation enrichment reaches at least 0.7 for IFRASYFRRGD [LTK_Y676_YF] ?
False

Reported phosphorylation enrichment reaches at least 0.7 for EHEALYLEADL [CENPF_Y1920] ?
True

Reported phosphorylation enrichment reaches at least 0.7 for WQQQSYLYSGI [CTNNB1_Y30_D32Y] ?
True

Reported phosphorylation enrichment reaches at least 0.7 for FSPFDYQPCLA [TNS1_Y798_YF] ?
True

###

# MEASURED ON: Grb2 SH2 (UniProt P62993)
# Sequence (P62993 whole entry, looked up): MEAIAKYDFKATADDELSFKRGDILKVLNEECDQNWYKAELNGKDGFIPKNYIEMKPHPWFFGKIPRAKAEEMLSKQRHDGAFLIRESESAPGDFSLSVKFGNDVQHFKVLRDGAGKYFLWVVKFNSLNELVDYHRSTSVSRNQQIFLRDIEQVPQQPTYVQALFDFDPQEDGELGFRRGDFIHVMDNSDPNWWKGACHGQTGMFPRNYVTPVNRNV
# EXPERIMENT NOTES: SH2 binding enrichment of the phosphorylated peptide, bacterial display (enrichment ratio); higher = better substrate or ligand; peptides without Tyr show the background
READOUT KIND: SH2 binding enrichment
Please reply with the number alone, leaving off any unit.

LLLLFYVVRFC [MPZ_Y177_YF]	1.69
DLDLTYIFPNI [PTEN_Y27_YF]	0.738
VSFDEYRFRSV [CFTR_Y515_YF]	0.776

// HCHEGYILHGA [SVEP1_Y2921] : SH2 binding enrichment value = 1.01

// QRRLVYYERGA [RYR1_Y245_G248R] : SH2 binding enrichment value = 0.951

// EALDFCGEVRT [PTEN_Y155_Y155C] : SH2 binding enrichment value = 1.07

// CNRADYSKLAS [GNE_Y22_P27S] : SH2 binding enrichment value = 0.874

###

Catalogue of sequences with associated phosphorylation enrichment
# MEASURED ON: FGFR3 (UniProt P22607)
# EXPERIMENT NOTES: phosphorylation enrichment, bacterial display (enrichment ratio); higher = better substrate or ligand; peptides without Tyr show the background

Before answering, review these 2 worked examples.
PSPMPYACCQM [FOXL2_Y215_S217C]	0.812
LLVVLCKFRCF [PSEN1_Y154_Y154C_YF]	0.999

Record YDDGKYVYVVT [RPS6KA3_Y488] has FGFR3 (UniProt P22607) phosphorylation enrichment equal to 1.38

Record PADSGYPAYLG [ATP6V1A_Y374] has FGFR3 (UniProt P22607) phosphorylation enrichment equal to 0.892

Record KIKGRYEKCEP [KRT26_Y119_W118R] has FGFR3 (UniProt P22607) phosphorylation enrichment equal to 1.17

Record GESQGYDIMEA [MSH2_Y863_P868A] has FGFR3 (UniProt P22607) phosphorylation enrichment equal to 0.546

Record STFVPCEIKVQ [L1CAM_Y784_Y784C] has FGFR3 (UniProt P22607) phosphorylation enrichment equal to 1.05

###

# MEASURED ON: Fes (UniProt P07332)
# Sequence (P07332 whole entry, looked up): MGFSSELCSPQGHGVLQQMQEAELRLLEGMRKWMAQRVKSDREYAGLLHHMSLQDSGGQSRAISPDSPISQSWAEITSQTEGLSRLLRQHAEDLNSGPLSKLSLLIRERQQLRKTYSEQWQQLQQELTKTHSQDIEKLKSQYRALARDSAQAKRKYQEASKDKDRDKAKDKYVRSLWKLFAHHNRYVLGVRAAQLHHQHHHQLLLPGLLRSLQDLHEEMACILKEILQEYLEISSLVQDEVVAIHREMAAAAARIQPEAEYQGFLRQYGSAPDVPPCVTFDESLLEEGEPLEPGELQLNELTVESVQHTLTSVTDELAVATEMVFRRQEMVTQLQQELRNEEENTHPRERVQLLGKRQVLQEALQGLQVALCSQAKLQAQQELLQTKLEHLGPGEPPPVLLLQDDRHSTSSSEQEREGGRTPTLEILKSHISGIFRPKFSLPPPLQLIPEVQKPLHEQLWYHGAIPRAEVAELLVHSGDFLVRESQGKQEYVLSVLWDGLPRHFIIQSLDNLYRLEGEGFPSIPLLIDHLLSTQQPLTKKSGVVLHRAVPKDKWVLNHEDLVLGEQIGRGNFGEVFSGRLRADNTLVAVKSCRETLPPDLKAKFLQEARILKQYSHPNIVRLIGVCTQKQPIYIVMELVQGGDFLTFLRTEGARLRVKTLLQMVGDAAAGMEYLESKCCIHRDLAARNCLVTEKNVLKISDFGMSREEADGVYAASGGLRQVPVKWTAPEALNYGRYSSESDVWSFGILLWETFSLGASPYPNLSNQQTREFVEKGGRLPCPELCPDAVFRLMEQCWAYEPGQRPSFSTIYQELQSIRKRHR
# EXPERIMENT NOTES: phosphorylation enrichment, bacterial display (enrichment ratio); higher = better substrate or ligand; peptides without Tyr show the background
Given measured phosphorylation enrichment, output Fulfilled if it is greater than or equal to 1 and Not fulfilled if not.

QPSALYEDRFL [ASS1_Y83_S79P_YF]	Fulfilled
FPPISYLNAIS [MVD_Y276]	Not fulfilled

Reported phosphorylation enrichment reaches at least 1 for SASRSYSRSRS [SRRM4_Y549] ?
Not fulfilled

Reported phosphorylation enrichment reaches at least 1 for FSPFDYQPCLA [TNS1_Y798_YF] ?
Fulfilled

Reported phosphorylation enrichment reaches at least 1 for IPTPAYQSSPA [PDCD6IP_Y727] ?
Not fulfilled

Reported phosphorylation enrichment reaches at least 1 for KDPPDYKYQPR [SOX9_Y172_H169P] ?
Not fulfilled

Reported phosphorylation enrichment reaches at least 1 for YDGGCYEQLFV [MC4R_Y41_S36Y] ?
Fulfilled

###

# MEASURED ON: FGFR1 (UniProt P11362)
# Sequence (P11362 whole entry, looked up): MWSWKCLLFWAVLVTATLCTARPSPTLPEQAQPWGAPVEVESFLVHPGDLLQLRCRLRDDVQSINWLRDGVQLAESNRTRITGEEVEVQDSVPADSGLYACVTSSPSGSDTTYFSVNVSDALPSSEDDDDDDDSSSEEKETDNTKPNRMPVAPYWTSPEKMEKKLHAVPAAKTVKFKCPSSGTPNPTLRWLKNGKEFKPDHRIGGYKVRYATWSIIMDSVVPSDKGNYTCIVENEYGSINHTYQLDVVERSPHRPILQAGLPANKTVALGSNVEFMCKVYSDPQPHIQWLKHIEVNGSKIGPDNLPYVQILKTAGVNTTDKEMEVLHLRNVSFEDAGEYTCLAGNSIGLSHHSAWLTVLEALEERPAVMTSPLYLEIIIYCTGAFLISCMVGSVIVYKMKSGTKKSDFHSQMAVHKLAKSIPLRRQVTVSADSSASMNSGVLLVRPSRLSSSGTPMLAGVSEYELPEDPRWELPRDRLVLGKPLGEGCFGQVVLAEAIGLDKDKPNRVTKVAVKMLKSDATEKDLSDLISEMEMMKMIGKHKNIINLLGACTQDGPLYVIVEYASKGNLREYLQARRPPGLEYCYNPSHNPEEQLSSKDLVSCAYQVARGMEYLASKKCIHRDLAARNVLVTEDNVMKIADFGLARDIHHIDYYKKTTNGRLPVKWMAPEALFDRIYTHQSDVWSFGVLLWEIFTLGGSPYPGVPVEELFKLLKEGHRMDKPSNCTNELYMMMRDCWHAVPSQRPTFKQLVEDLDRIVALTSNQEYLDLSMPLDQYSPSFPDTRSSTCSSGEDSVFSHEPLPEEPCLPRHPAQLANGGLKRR
# EXPERIMENT NOTES: phosphorylation enrichment, bacterial display (enrichment ratio); higher = better substrate or ligand; peptides without Tyr show the background
Catalogue of sequences with associated phosphorylation enrichment
Please reply with the number alone, leaving off any unit.

QITQVCGFFDE [PPP2CA_Y127_Y127C_YF]	0.5

// QRVLLYVQRET [GRHL3_Y518_R520Q] : phosphorylation enrichment value = 0.855

// TEAGNYKLCFD [TMED1_Y103_D102N] : phosphorylation enrichment value = 0.627

// LEQGEYALRSH [HADHB_Y244_D242G] : phosphorylation enrichment value = 0.736

###

# Test system: c-Src
# EXPERIMENT NOTES: phosphorylation enrichment, bacterial display (enrichment ratio); higher = better substrate or ligand; peptides without Tyr show the background
Given measured phosphorylation enrichment, output true if it is greater than or equal to 0.5 and false if not.

Example results:
DTERIYDDDFF [UBA1_Y560]	true
VDASFCGGRGV [ANTXR2_Y381_Y381C_YF]	false
GRSTYYWPRPR [GAGE12J_Y10]	true
KAIMTYVSSFF [ACTN4_Y260_YF]	true
HAVYIYDICHV [TWNK_Y508_V507I]	true

Reported phosphorylation enrichment reaches at least 0.5 for NNRVFYGNSDR [RS1_Y177] ?
false

Reported phosphorylation enrichment reaches at least 0.5 for ETELPYQELQG [TYROBP_Y91_S89L] ?
true

Reported phosphorylation enrichment reaches at least 0.5 for FGMSTYITRED [FNDC3B_Y180_YF] ?
true

Reported phosphorylation enrichment reaches at least 0.5 for FLTLHYDAKPQ [ANG_Y38_Q36L] ?
false

Reported phosphorylation enrichment reaches at least 0.5 for CEAMEYPESKQ [BTK_Y511_L512P] ?
true

Reported phosphorylation enrichment reaches at least 0.5 for FETNVYVDKNL [PTCHD3_Y688_K685T] ?
false

Reported phosphorylation enrichment reaches at least 0.5 for MGCVNYGAYIN [GLB1_Y485_R482C] ?
true

###

# MEASURED ON: Fes (UniProt P07332)
# EXPERIMENT NOTES: phosphorylation enrichment, bacterial display (enrichment ratio); higher = better substrate or ligand; peptides without Tyr show the background
READOUT KIND: phosphorylation enrichment
Please reply with the number alone, leaving off any unit.

// HTVVSYAEVRA [CLOCK_Y378] : phosphorylation enrichment value = 1.23

// EWRSPYGLTPR [GRIN3B_Y601] : phosphorylation enrichment value = 0.636

// AKKKMYSRKTK [AGXT_Y231] : phosphorylation enrichment value = 0.505

// DAVKHYMQFQK [CNGA2_Y395_R399Q] : phosphorylation enrichment value = 0.496

// KQFWRYFAGNL [SLC25A4_Y112] : phosphorylation enrichment value = 1.03

// GFFDLYGGEKF [PTPN11_Y66_D61G_YF] : phosphorylation enrichment value = 1.05

// DVLEFYNSKKT [PAK1_Y131] : phosphorylation enrichment value = 1.38

// EKSREYDRLFE [PIK3R1_Y463_YF] : phosphorylation enrichment value = 0.993

// PAQAAYQKVVA [HBB_Y131_V127A] : phosphorylation enrichment value = 0.771

###

# MEASURED ON: EPHB2 (UniProt P29323)
# Sequence (P29323 whole entry, looked up): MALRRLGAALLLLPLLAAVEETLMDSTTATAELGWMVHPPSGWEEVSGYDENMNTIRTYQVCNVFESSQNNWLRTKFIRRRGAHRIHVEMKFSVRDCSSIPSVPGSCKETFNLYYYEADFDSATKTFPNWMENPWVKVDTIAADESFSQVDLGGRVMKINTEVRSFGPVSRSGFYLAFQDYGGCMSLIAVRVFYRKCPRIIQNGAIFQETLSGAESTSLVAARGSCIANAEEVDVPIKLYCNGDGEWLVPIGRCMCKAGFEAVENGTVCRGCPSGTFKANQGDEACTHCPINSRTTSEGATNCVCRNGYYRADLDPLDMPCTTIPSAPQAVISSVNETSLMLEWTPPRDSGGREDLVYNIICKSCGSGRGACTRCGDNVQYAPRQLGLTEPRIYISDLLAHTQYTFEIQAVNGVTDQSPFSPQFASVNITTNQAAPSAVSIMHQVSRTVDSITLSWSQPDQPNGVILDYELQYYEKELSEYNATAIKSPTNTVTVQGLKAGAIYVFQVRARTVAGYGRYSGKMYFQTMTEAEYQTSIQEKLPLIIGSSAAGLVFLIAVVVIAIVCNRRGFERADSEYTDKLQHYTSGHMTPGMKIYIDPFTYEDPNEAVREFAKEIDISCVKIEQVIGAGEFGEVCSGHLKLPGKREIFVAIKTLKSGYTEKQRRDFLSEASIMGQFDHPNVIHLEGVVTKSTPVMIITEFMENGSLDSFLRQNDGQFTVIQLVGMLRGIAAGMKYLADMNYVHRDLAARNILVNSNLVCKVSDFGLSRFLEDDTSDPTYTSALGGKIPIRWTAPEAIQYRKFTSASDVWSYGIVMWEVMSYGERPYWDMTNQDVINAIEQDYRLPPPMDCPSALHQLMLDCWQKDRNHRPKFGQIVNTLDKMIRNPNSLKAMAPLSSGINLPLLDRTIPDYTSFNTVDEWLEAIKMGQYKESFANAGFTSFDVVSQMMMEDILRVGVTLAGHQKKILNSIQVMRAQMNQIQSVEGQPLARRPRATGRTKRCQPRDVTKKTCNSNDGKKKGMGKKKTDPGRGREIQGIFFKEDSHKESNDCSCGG
# EXPERIMENT NOTES: phosphorylation enrichment, bacterial display (enrichment ratio); higher = better substrate or ligand; peptides without Tyr show the background
READOUT KIND: phosphorylation enrichment

LIDTVYSSSSA [OR4C12_Y71]	0.782
VTGWGYRKLRE [F11_Y521_D526E]	0.455
VSYGEYRYRSV [CFTR_Y515_D513G]	0.416
GSERDYTYEEL [EIF2S2_Y174]	0.645

// LICRRYLVMQR [IL3RA_Y328_V323L] : phosphorylation enrichment value = 1.72

// FSQQTYYPVSN [ABCD1_Y180_R182P] : phosphorylation enrichment value = 3.55

// ENQEIYRKAFD [KPNA1_Y493_Q494R] : phosphorylation enrichment value = 0.798

// YRDALYKFIVD [PHEX_Y250_M253I] : phosphorylation enrichment value = 1.02

// PRQRRYVYYYS [PTEN_Y174_S170R] : phosphorylation enrichment value = 1.02

// KAVLHYKHQNQ [MTOR_Y1804_E1799K] : phosphorylation enrichment value = 0.328

// KDHPDYKFQLR [SOX10_Y171_P175L_YF] : phosphorylation enrichment value = 0.492

// MGCVNYGAYIN [GLB1_Y485_R482C] : phosphorylation enrichment value = 0.83
